experimental-target: dog B2 receptor (Canis lupus familiaris)
Sequence (Q9BDQ4 1-392): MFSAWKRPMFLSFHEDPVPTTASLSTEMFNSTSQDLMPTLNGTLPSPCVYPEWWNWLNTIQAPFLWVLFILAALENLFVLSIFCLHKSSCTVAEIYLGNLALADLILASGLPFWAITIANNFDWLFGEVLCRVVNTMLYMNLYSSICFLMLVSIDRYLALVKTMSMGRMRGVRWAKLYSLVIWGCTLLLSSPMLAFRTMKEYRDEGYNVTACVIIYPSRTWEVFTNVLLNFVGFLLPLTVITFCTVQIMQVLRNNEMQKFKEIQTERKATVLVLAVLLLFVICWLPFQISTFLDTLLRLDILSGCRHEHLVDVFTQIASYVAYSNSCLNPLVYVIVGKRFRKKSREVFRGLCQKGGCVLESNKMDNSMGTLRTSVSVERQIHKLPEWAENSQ
test: Ca^2+ mobilization assay, HEK293T cells
Type: cell-based
pIC50: −log10 of the molar value.

[
  {
    "smiles-representation": "Cc1cc(-c2ncnn2C)c2cccc(OCc3c(Cl)cc(F)cc3[C@H](C)NC(=O)COC(F)F)c2n1",
    "experimental-target": "dog B2 receptor (Canis lupus familiaris)",
    "pIC50": "~5.12"
  }
]

----------
experimental-target: B2 receptor (Homo sapiens, UniProt P30411)
Sequence (P30411 whole entry): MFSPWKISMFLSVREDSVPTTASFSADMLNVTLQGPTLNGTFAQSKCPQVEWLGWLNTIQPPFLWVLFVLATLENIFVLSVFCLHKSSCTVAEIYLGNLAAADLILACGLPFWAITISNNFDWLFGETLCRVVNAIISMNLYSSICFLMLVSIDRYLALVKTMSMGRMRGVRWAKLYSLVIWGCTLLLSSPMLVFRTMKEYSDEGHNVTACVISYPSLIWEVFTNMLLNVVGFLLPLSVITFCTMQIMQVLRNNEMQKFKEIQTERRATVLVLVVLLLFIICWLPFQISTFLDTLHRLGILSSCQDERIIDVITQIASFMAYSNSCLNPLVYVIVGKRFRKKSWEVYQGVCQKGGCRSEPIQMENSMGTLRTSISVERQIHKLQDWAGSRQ
test: Ca^2+ mobilization assay, transfected CHO cells
Assay type: cell-based
Parameters: host or cells: CHO cells
condition-description: inhibition of response to 0.03 nM BK; arithmetic mean; read-out: IC50 (nM) Mean
Quick reference for IC50 among some compounds
experimental-endpoint: IC50 (nM)

[
  {
    "compound": "Cc1cc(-c2ncnn2C)c2cccc(OCc3c(Cl)cncc3C(C)NC(=O)COC(F)F)c2n1 (racemic) [Compound 2]",
    "unit-text": "nM",
    "reported": 9.57
  },
  {
    "compound": "Cc1cc(-c2ncnn2C)c2cccc(OCc3c(Cl)cc(F)cc3[C@H](C)NC(=O)COC(F)F)c2n1 [Compound 3]",
    "unit-text": "nM",
    "reported": 2.13
  },
  {
    "compound": "Cc1cc(-c2ncnn2C)c2cccc(OCc3c(Cl)cncc3CNC(=O)C3CCCCC3)c2n1 [Compound 1]",
    "unit-text": "nM",
    "reported": 11.3
  }
]

----------
experimental-target: mouse B2 receptor (Mus musculus, UniProt P32299)
Construct: host or cells: HEK293T cells
Sequence (P32299 whole entry): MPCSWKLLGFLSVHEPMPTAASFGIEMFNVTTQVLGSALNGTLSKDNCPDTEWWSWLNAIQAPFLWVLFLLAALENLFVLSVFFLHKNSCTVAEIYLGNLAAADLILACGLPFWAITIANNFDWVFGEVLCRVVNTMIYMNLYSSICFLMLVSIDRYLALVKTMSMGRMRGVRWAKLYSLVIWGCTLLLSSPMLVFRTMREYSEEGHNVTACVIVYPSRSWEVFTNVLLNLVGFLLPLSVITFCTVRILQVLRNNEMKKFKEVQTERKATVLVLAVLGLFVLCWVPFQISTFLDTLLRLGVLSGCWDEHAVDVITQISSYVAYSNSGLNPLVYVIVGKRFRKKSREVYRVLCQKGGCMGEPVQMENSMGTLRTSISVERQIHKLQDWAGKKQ
test: Ca^2+ mobilization assay, HEK293T cells
Format: cell-based
condition-description: BK at EC80 0.53 nM, n=1

[
  {
    "compound": "NC(N)=NCCC[C@@H](N)C(=O)N[C@@H](CCCN=C(N)N)C(=O)N1CCC[C@H]1C(=O)N1C[C@H](O)C[C@H]1C(=O)NCC(=O)N[C@@H](Cc1cccs1)C(=O)N[C@@H](CO)C(=O)N1Cc2ccccc2C[C@@H]1C(=O)N1[C@H](C(=O)N[C@@H](CCCN=C(N)N)C(=O)O)C[C@@H]2CCCC[C@@H]21 [icatibant, reference compound]",
    "unit-text": "nM",
    "IC50": 15.5
  }
]

----------
Quick reference for IC50 among some compounds
experimental-target: rat B2 receptor (Rattus norvegicus, UniProt P25023)
Construct: host or cells: HEK293T cells
Sequence (P25023 whole entry): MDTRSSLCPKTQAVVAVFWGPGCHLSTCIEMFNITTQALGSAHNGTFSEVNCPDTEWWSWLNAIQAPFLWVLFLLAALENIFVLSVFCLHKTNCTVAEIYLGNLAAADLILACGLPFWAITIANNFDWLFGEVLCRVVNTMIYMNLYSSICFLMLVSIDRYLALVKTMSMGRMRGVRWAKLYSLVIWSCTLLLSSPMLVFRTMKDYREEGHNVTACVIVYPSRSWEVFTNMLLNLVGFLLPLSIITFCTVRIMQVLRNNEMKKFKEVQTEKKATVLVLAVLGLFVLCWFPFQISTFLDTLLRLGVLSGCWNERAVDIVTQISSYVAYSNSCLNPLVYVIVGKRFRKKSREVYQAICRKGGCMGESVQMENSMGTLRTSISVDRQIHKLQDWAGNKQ
test: Ca^2+ mobilization assay, HEK293T cells
Format: cell-based
condition-description: BK at EC80 4.32 nM
experimental-endpoint: IC50 (nM)

[
  {
    "compound": "Cc1cc(-c2ncnn2C)c2cccc(OCc3c(Cl)cc(F)cc3[C@H](C)NC(=O)COC(F)F)c2n1",
    "unit-text": "nM",
    "reported": 1030
  },
  {
    "compound": "NC(N)=NCCC[C@@H](N)C(=O)N[C@@H](CCCN=C(N)N)C(=O)N1CCC[C@H]1C(=O)N1C[C@H](O)C[C@H]1C(=O)NCC(=O)N[C@@H](Cc1cccs1)C(=O)N[C@@H](CO)C(=O)N1Cc2ccccc2C[C@@H]1C(=O)N1[C@H](C(=O)N[C@@H](CCCN=C(N)N)C(=O)O)C[C@@H]2CCCC[C@@H]21 [icatibant, reference compound]",
    "unit-text": "nM",
    "reported": 37.4
  }
]
